Hey, just so you know, these numbers are from PubChem BioAssay (NCI).

system: HOP-62 NSCLC; assay: NCI tumour cell line growth inhibition, 48 h; in the data active = GI50 below about 0.43 µM; inactive = the rest
Outcome codes: active, inactive

{"columns": ["MOLECULE", "ASSAYED TARGET", "DISCRETE LABEL"],
 "data": [
  ["Cc1cc(S(N)(=O)=O)c(S/C(CC(C)C)=N\\Nc2ccc([N+](=O)[O-])cc2)cc1Cl", "HOP-62 NSCLC", "inactive"],
  ["C#CCC(Cc1cnc2nc(N)nc(N)c2n1)c1ccc(C(=O)N[C@@H](CCC(=O)O)C(=O)O)cc1 (stereo partly drawn)", "HOP-62 NSCLC", "active"],
  ["Cc1ccc(/C=C2/SC(Nc3nc(-c4csc(NC5=NC(=O)/C(=C\\c6ccc(C)cc6)S5)n4)cs3)=NC2=O)cc1", "HOP-62 NSCLC", "inactive"],
  ["CCOc1ccc(-c2nonc2NC(=O)c2cccc(C)c2)cc1OCC", "HOP-62 NSCLC", "inactive"],
  ["Ic1ccccc1-c1ccccc1", "HOP-62 NSCLC", "inactive"],
  ["C/C(=N\\Nc1cc(C)c2cc(C)ccc2n1)c1ccccn1", "HOP-62 NSCLC", "active"],
  ["O=C(CNc1ccc2c(c1)C(=O)c1ccccc1C2=O)Nc1ccc2c(c1)C(=O)c1ccccc1C2=O", "HOP-62 NSCLC", "inactive"],
  ["Cc1ccccc1N=Nc1ccc(NC(=O)c2ccnn2C)c(C)c1", "HOP-62 NSCLC", "inactive"],
  ["O=c1c2ccccc2n(C[C@H]2CO2)c2ccccc12", "HOP-62 NSCLC", "inactive"],
  ["CCCc1cc2c(=O)c(C(=O)OC)c[nH]c2cc1N(CC)CC", "HOP-62 NSCLC", "inactive"],
  ["N[C@@H]1CCCC[C@H]1N.O=C([O-])C(=O)[O-].[Pt+4]", "HOP-62 NSCLC", "inactive"],
  ["O=C1C(Cl)=C(Nc2cccc(Cl)c2)C(=O)N1Cc1ccccc1Cl", "HOP-62 NSCLC", "inactive"],
  ["CC[C@H](Nc1nc(NCc2cnc(C)cc2C)c2ncn(C(C)C)c2n1)[C@@H](C)O", "HOP-62 NSCLC", "active"],
  ["O=C1NC(O)C(c2c[nH]c3ccccc23)=C1c1c[nH]c2ccccc12 (stereo not drawn)", "HOP-62 NSCLC", "inactive"],
  ["Nc1c(Br)cc(Br)c2c1[nH]c(=O)c1ccccc12", "HOP-62 NSCLC", "inactive"],
  ["O=C1/C(=C/c2ccccc2)CN(C(=O)c2cccnc2)C/C1=C\\c1ccccc1", "HOP-62 NSCLC", "inactive"],
  ["COc1cc(-c2nn(-c3cccc(NC(=O)Nc4cc(C(F)(F)F)cc(C(F)(F)F)c4)c3)cc2-c2ccncc2)ccc1Cl", "HOP-62 NSCLC", "inactive"],
  ["CC1=C2C[C@H]3[C@@H](CC[C@@H]4CC(NS(C)(=O)=O)CC[C@@]43C)[C@@H]2CC[C@@]2(C1)O[C@@H]1C[C@H](C)CN[C@H]1[C@H]2C (stereo partly drawn)", "HOP-62 NSCLC", "inactive"]
]}

---

system: OVCAR-8 ovarian; assay: NCI tumour cell line growth inhibition, 48 h
Listing of entries alongside the reported TGI.
READOUT: TGI

{"columns": ["STRUCTURE AS SMILES", "READOUT", "OBSERVED VALUE"],
 "data": [
  ["CN(CCCCN1CCCC1)CCCN(C)C(=O)Cc1ccc(Cl)c(Cl)c1", "TGI", "> 100 µM"],
  ["Cc1ccc2ccccc2c1NC1=NCCO1", "TGI", "> 100 µM"],
  ["CC1(C)O[C@@H]2[C@@H](COC(=O)c3ccccc3)C[C@@H](C#N)[C@@H]2O1", "TGI", "> 100 µM"],
  ["Clc1cc(Cc2cc(Cl)c(Cl)c3c2OCOC3)c2c(c1Cl)COCO2", "TGI", "> 100 µM"],
  ["Nc1c(Br)cc(Br)c2c1[nH]c(=O)c1ccccc12", "TGI", "26.5 µM"],
  ["CS/C1=C(\\c2ccc(C)cc2)N(c2ccccc2)C(=O)C(=O)N(c2ccccc2)/C(c2ccc(C)cc2)=C(/SC)SS1", "TGI", "> 100 µM"],
  ["COc1cc(/C=C2\\C[C@H]3[C@@H]4CC=C5C=C(N6CCCC6)CC[C@]5(C)[C@H]4CC[C@]3(C)C2=O)cc(OC)c1OC", "TGI", "6.1 µM"]
]}

---

Listing of entries alongside the reported GI50.
test system: HL-60(TB) leukemia; assay: NCI tumour cell line growth inhibition, 48 h

{"columns": ["COMPOUND", "GI50"],
 "data": [
  ["Cn1c(/C=C(\\C#N)c2ccccc2)nc2c(N3CCOCC3)nc(Cl)nc21", "0.462 µM"],
  ["N#Cc1nc2c(S(=O)(=O)c3ccccc3)c(N)n(Cc3cccnc3)c2nc1C#N", "3.71 µM"],
  ["COC(=O)c1c2c(c(C)[n+]([O-])c1C)C(=O)C=C(NCc1ccc(F)c(Cl)c1)C2=O", "0.27 µM"],
  ["O=c1ccn(C2OC(CO/N=C/c3ccc(O)c(O)c3O)C(O)C2O)c(=O)[nH]1 (stereo not given)", "26.9 µM"],
  ["COc1ccc(/C=C/C(=O)c2ccc(SC)cc2)cc1OC", "25.7 µM"]
]}

---

Listing of entries alongside the reported TGI.
system: SF-268 CNS; experiment: NCI tumour cell line growth inhibition, 48 h

{"columns": ["MOLECULE", "TGI"],
 "data": [
  ["COc1ccc(C(=O)Cn2c(C(=O)/C=C/c3ccco3)nc3ccccc32)cc1", "91.4 µM"],
  ["O=C(CC(C(=O)c1cccs1)c1ccsc1)c1cccs1 (stereo unspecified)", "> 100 µM"],
  ["Clc1ccc2c(c1)C1C(CO2)C(c2ccccc2)=NN1c1ccccc1 (stereo unspecified)", "> 100 µM"],
  ["CC(C)[C@H](CO)Nc1nc(Nc2ccc(C(=O)NCCNS(=O)(=O)c3cccc4c(N(C)C)cccc34)c(Cl)c2)c2ncn(C(C)C)c2n1", "34.2 µM"],
  ["Nc1ccc2nc(Nc3ccc(F)cc3)cnc2c1", "> 100 µM"],
  ["COc1cc(C)c2c(=O)c3ccccc3n(C)c2c1", "95.9 µM"],
  ["O/C(=C\\c1nc2ccccc2nc1/C=C(\\O)c1ccc(Cl)cc1)c1ccccc1", "> 100 µM"],
  ["O=c1[nH]/c(=C/c2ccc(OCc3ccccc3)cn2)c(=O)[nH]/c1=C/c1ccc([N+](=O)[O-])cc1", "> 100 µM"],
  ["N#CN=C(N)NC(=O)/C=C/C=C/c1ccc(Cl)cc1", "> 100 µM"],
  ["C#CCC(Cc1cnc2nc(N)nc(N)c2n1)c1ccc(C(=O)N[C@@H](CCC(=O)O)C(=O)O)cc1 (stereo partly specified)", "> 100 µM"],
  ["COc1cccc(NC(=O)/C(CC(=O)CC(c2ccccc2)c2c(O)c3ccccc3oc2=O)=N\\NC(C)(C)C)c1OC (stereo unspecified)", "> 100 µM"],
  ["Oc1ccccc1C=NCc1ccco1", "> 100 µM"],
  ["CCCCCCCCCc1cc(-c2ccc(C=O)s2)sc1-c1ccc(C=O)s1", "> 100 µM"],
  ["CS/C1=C(\\c2ccc(C)cc2)N(c2ccccc2)C(=O)C(=O)N(c2ccccc2)/C(c2ccc(C)cc2)=C(/SC)SS1", "> 100 µM"],
  ["O=C(COc1ccc(OCC(=O)N2C(=O)CSC2=Nc2ccccc2)cc1)N1C(=O)CSC1=Nc1ccccc1", "> 100 µM"],
  ["COc1cc2cc(Oc3ccc(NC(=O)Nc4cccc(C(F)(F)F)c4)cc3)c(C)nc2cc1OC", "15.5 µM"],
  ["O=C1NC(O)C(c2c[nH]c3ccccc23)=C1c1c[nH]c2ccccc12 (stereo unspecified)", "> 25 µM"],
  ["COC(=O)c1ccccc1CC1Cc2ccc3c(c2C1)CCC3 (stereo unspecified)", "> 100 µM"],
  ["O=C1c2ccccc2NC(=O)C2C1C(c1ccccc1)CC2(O)c1ccccc1 (stereo unspecified)", "> 100 µM"],
  ["O=C1/C(=C/c2ccccc2)CN(C(=O)c2cccnc2)C/C1=C\\c1ccccc1", "13.7 µM"],
  ["CC(C)(C)c1cc(C2NCCO2)cc(C(C)(C)C)c1O (stereo unspecified)", "> 100 µM"],
  ["c1ccc2[nH]c(-c3ccc(NN=Nc4ccncc4)cc3)nc2c1", "74.4 µM"],
  ["COc1cc(-c2nn(-c3cccc(NC(=O)Nc4cc(C(F)(F)F)cc(C(F)(F)F)c4)c3)cc2-c2ccncc2)ccc1Cl", "2.3 µM"],
  ["CC(C)(C)OC(=O)c1cnc(Cl)cn1", "> 100 µM"],
  ["N/C(=C\\c1ccc(OCc2ccccc2)c(OCc2ccccc2)c1[N+](=O)[O-])C(=O)O", "> 100 µM"],
  ["Nc1nc(N)c(C2=CCNCC2)c(=O)[nH]1", "> 100 µM"],
  ["N#Cc1c(NN)nc(NN)c(C#N)c1-c1ccccc1", "> 100 µM"],
  ["COc1ccc(C(=O)Cc2c(C(=O)c3ccccc3)c3ccccc3n2C(=O)c2ccccc2)cc1", "> 100 µM"],
  ["CN(CCCCN1CCCC1)CCCN(C)C(=O)Cc1ccc(Cl)c(Cl)c1", "> 100 µM"],
  ["CCn1c(CN2CCN(Cc3ccccc3)CC2)nc2cc(NC(=O)c3cccs3)ccc21", "97.9 µM"],
  ["Nc1nc(N)c(NC(=O)CCCO)c(=O)[nH]1", "> 100 µM"],
  ["N#Cc1nc2c(S(=O)(=O)c3ccccc3)c(N)n(Cc3cccnc3)c2nc1C#N", "22.7 µM"],
  ["NC(=S)N/N=C(\\Cc1nc2ccc(Cl)cc2[nH]c1=O)C(=O)Nc1ccc(Cl)cc1", "> 100 µM"],
  ["Cc1c(C)c2c(c(N)c1C#N)C(=O)N(Nc1ccccc1)C2=O", "> 100 µM"],
  ["COC(=O)C(=O)OC1(C(C)=O)CC2(c3ccccc3)OC1(c1ccccc1)c1ccccc12 (stereo unspecified)", "44 µM"],
  ["CC1(C)O[C@@H]2[C@@H](COC(=O)c3ccccc3)C[C@@H](C#N)[C@@H]2O1", "> 100 µM"],
  ["OC1(c2ccccc2)CC2CCC(C1)N2CCCC1(c2ccc(F)cc2)OCCO1 (stereo unspecified)", "> 100 µM"],
  ["O=c1c2ccccc2n(C[C@H]2CO2)c2ccccc12", "5.97 µM"],
  ["O=C1c2ccccc2C(=O)c2c(Nc3ccc4c5c(cccc35)C(=O)c3ccccc3-4)cccc21", "> 100 µM"],
  ["O=C1c2ccccc2C(=O)[C@@]23O[C@@]12C1(Oc2cccc4cccc(c24)O1)[C@@H]1O[C@@H]1[C@@H]3O", "25.4 µM"],
  ["Cc1ccc2ccccc2c1NC1=NCCO1", "> 100 µM"]
]}
